tested on: HIV-1 subtype A strain 12RU 69831; test: Inhibition of HIV-1 reproduction / protection of infected MT-4 cells (living cell concentration, p24 production); type: cell-based; settings: Human immunodeficiency virus 1, MT4, MT-4 cells infected with HIV-1 at a constant virus dose of 300 CCID50; read-out: Activity against HIV-1 12RU 69831 strain (subtype A)
pIC50: −log10 of the molar value.
quantity: pIC50

(P) Cc1cc(C#N)cc(C)c1Oc1nc(Nc2ccc(C#N)cc2)nc2c1CCN(C1CCOCC1)CC2 [BB0274072]
(Q) Cc1cc(C2OCCCO2)cc(C)c1Oc1nc(Nc2ccc(C#N)cc2)nc2c1CCN(C(=O)OC(C)(C)C)CC2 [BB0273892]
(R) Cc1cc(C#N)cc(C)c1Oc1nc(Nc2ccc(C#N)cc2)nc2c1CCN(Cc1cccnc1)CC2 [BB0274015]
(S) Cc1cc(C#N)cc(C)c1Oc1nc(Nc2ccc(C#N)cc2)nc2c1CN(C(=O)[C@H](C)N)CC2 [BB0274102]
Sort low-to-high on pIC50, please. Would you mind listing the labels in the order asked for?
Q, R, P, S

====

tested on: HIV-1 subtype A strain 12RU 69831; test: Inhibition of HIV-1 reproduction / protection of infected MT-4 cells (living cell concentration, p24 production); format: cell-based; conditions: Human immunodeficiency virus 1, MT4, MT-4 cells infected with HIV-1 at a constant virus dose of 300 CCID50; read-out: Activity against HIV-1 12RU 69831 strain (subtype A)
quantity: IC50 (nM)

molecule	unit	reported
Cc1cc(C#N)cc(C)c1Oc1nc(Nc2ccc(C#N)cc2)nc2c1CCN(Cc1ccc(O)cc1)CC2	nM	5800

(P) Cc1cc(C#N)cc(C)c1Oc1nc(Nc2ccc(C#N)cc2)nc2c1CN(C(=O)C1CCCN1)CC2 (stereo not drawn)
(Q) Cc1cc(C#N)cc(C)c1Oc1nc(Nc2ccc(C#N)cc2)nc2c1CN(Cc1ccncc1)CC2
For P and Q , which recorded IC50 is lower? # respond with the chosen item's label
Q
(Q: 7.99 nM, P: 46 nM)
